Listed compounds paired with reported IC50
Target: UniProt:Q99685
Sequence (Q99685 whole entry): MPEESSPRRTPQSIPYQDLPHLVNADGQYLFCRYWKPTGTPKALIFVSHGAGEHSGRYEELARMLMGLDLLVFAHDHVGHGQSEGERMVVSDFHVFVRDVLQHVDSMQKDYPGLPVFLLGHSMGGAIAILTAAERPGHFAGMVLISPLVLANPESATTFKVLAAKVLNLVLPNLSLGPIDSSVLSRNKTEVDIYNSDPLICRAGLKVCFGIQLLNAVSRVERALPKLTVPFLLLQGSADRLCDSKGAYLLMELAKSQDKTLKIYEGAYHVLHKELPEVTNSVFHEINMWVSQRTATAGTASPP
Experiment: Inhibition of human recombinant MAGL using [3H]-2-OG as substrate incubated for 30 mins at room temperature followed by incubation at 37 degC for 10 mins by liquid scintillation assay

{"columns": ["Smiles code", "Target system", "Unit tag", "IC50"],
 "data": [
  ["C=CCCC(=O)N1C[C@@H]([C@@H](C)OC(=O)CCCc2ccccc2)C1=O", "UniProt:Q99685", "µM", 4.06],
  ["C=CCNC(=O)N1C[C@@H]([C@@H](C)OC(=O)COCc2ccccc2)C1=O", "UniProt:Q99685", "µM", 56.8],
  ["C=CCNC(=S)N1C[C@@H]([C@@H](C)OC(=O)COCc2ccccc2)C1=O", "UniProt:Q99685", "µM", 122],
  ["CCCSC(=O)N1C[C@@H]([C@@H](C)OC(=O)CCCc2ccccc2)C1=O", "UniProt:Q99685", "µM", 19],
  ["C=CCNC(=O)N1C[C@@H]([C@@H](C)OC(=O)CCCc2ccccc2)C1=O", "UniProt:Q99685", "µM", 98.4],
  ["C=CCOC(=O)N1C[C@@H]([C@@H](C)OC(=O)CCCc2ccccc2)C1=O", "UniProt:Q99685", "µM", 10.3]
]}

====

Biological target: Fatty-acid amide hydrolase 1 (Homo sapiens, UniProt O00519)
Sequence (O00519 whole entry): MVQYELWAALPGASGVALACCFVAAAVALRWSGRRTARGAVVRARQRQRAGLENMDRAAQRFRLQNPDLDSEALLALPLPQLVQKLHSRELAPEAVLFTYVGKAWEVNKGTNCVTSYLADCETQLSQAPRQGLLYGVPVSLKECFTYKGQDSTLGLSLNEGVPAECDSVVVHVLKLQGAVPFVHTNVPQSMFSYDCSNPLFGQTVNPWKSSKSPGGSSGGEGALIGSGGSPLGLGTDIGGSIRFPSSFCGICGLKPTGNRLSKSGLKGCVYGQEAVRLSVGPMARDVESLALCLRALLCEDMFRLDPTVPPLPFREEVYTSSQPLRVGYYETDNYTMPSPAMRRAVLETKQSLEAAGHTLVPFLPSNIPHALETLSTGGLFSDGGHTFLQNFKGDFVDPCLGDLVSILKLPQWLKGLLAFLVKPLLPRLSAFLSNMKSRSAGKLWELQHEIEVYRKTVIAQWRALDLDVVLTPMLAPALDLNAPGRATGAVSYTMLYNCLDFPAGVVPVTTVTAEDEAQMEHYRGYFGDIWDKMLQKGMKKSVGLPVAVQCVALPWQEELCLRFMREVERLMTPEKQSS
Assay: Inhibition of human recombinant FAAH-mediated [3H]AEA hydrolysis after 10 mins by liquid scintillation assay
Reported property: log10 of IC50 (log10 of the value in nM)

{"columns": ["Smiles code", "log10 of IC50"],
 "data": [
  ["C=CCOC(=O)N1C[C@@H]([C@@H](C)OC(=O)CCCc2ccccc2)C1=O", 0.56],
  ["C=CCCC(=O)N1C[C@@H]([C@@H](C)OC(=O)CCCc2ccncc2)C1=O", 2.49],
  ["C=CCOC(=O)N1C[C@@H]([C@@H](C)OC(=O)COCc2ccccc2)C1=O", 1.48],
  ["C=CCOC(=O)N1C[C@@H]([C@@H](C)OC(=O)NCCc2ccccc2)C1=O", 1.08],
  ["C=CCNC(=O)N1C[C@@H]([C@@H](C)OC(=O)COCc2ccccc2)C1=O", 1.85],
  ["C=CCNC(=S)N1C[C@@H]([C@@H](C)OC(=O)NCCc2ccccc2)C1=O", 2.98],
  ["C=CCCC(=O)N1C[C@@H]([C@@H](C)OC(=O)NCCc2ccccc2)C1=O", 1.52],
  ["C=CCNC(=S)N1C[C@@H]([C@@H](C)OC(=O)CCCc2ccccc2)C1=O", 2.16],
  ["C=CCNC(=O)N1C[C@@H]([C@@H](C)OC(=O)CCCc2ccccc2)C1=O", 0.75]
]}
